Source of measurements: paper PMC10268488

Item-by-item account of IC50
Biological target: yeast α-glucosidase (Saccharomyces cerevisiae)
Sequence (P53341 whole entry): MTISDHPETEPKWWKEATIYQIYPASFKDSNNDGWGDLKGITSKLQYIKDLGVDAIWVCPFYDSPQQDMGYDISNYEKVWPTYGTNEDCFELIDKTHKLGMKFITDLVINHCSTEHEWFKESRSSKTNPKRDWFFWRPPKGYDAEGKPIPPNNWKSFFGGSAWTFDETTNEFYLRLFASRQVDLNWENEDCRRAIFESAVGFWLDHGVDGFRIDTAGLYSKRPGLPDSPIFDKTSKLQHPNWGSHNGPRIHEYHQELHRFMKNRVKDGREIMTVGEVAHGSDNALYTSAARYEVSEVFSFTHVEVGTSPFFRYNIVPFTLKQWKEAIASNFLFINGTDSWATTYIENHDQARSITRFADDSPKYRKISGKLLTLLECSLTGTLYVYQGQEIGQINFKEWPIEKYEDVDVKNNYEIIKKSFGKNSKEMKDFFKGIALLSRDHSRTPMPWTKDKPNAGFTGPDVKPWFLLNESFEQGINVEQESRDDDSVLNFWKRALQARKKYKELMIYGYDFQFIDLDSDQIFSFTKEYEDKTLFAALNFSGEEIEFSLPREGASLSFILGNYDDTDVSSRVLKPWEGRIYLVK
Test: biochemical
Assay type: biochemical
// note: answer is a bare numeric in µM

Below: 4 molecules and their reported IC50.
{"columns": ["Molecule", "IC50, µM"],
 "data": [
  ["Cc1cc(NC(=O)Cn2cc(COc3ccc(/C=N/NC(=O)c4cc5ccccc5[nH]4)cc3)nn2)ccc1[N+](=O)[O-] [Compound 11h]", 35.1],
  ["COc1cc(/C=N/NC(=O)c2cc3ccccc3[nH]2)ccc1OCc1cn(CC(=O)Nc2ccccc2)nn1 [Compound 11i]", 11.3],
  ["O=C(Cn1cc(COc2ccc(/C=N/NC(=O)c3cc4ccccc4[nH]3)cc2)nn1)Nc1ccccc1Cl [Compound 11e]", 27],
  ["COc1cc(/C=N/NC(=O)c2cc3ccccc3[nH]2)ccc1OCc1cn(CC(=O)Nc2cccc([N+](=O)[O-])c2Cl)nn1 [Compound 11o]", 12.7]
]}

Hi! What's the reported IC50 for COc1cc(/C=N/NC(=O)c2cc3ccccc3[nH]2)ccc1OCc1cn(CC(=O)Nc2cccc(Cl)c2Cl)nn1 [Compound 11l] on yeast α-glucosidase (Saccharomyces cerevisiae)?
18.2

GET /values?readout=IC50&system=yeast α-glucosidase (Saccharomyces cerevisiae)&item= COc1cc(/C=N/NC(=O)c2cc3ccccc3[nH]2)ccc1OCc1cn(CC(=O)Nc2cc(Cl)cc(Cl)c2)nn1 [Compound 11m]
14.2
